# procedure-summary: Plasma pharmacokinetics of unchanged rucaparib (LC-MS/MS) after a single oral dose of [14C]-rucaparib 600 mg
# Type: in vivo, human
# condition-details: human, plasma; unchanged rucaparib by LC-MS/MS; single oral 600 mg; N = 6; mean ± SD; read-out: Cmax, rucaparib concentration in plasma
parameter-measured: Cmax (ng/mL)

cpd-smiles	parameter-measured	unit-text	numeric-readout
CNCc1ccc(-c2[nH]c3cc(F)cc4c3c2CCNC4=O)cc1	Cmax	ng/mL	428

---

# procedure-summary: Mass balance: recovery of radioactivity in urine and feces
# Assay type: in vivo, human
# condition-details: human, urine and feces, po, 600 mg; radioactivity in urine plus radioactivity recovered as metabolites in feces; read-out: Oral bioavailability suggested by the current study

cpd-smiles	bioavailability
CNCc1ccc(-c2[nH]c3cc(F)cc4c3c2CCNC4=O)cc1	≥ 21%

---

# procedure-summary: Metabolite profiling in plasma (LC-MS-TopCount)
# Type: in vivo, human
# condition-details: human, plasma, oral, 600 mg; single pooled sample from all six patients; 4 h; read-out: Mean concentration, time point pooled plasma, 4 h

cpd-smiles	concentration at 4 h
O=C(O)c1ccc(-c2[nH]c3cc(F)cc4c3c2CCNC4=O)cc1	265 ng/mL
CNCc1ccc(-c2[nH]c3cc(F)cc4c3c2CCNC4=O)cc1	590 ng/mL

---

In this section we review reported concentration at 1 h values for a set of molecules.
# procedure-summary: Metabolite profiling in plasma (LC-MS-TopCount)
# Type: in vivo, human
# condition-details: human, plasma, oral, 600 mg; single pooled sample from all six patients; 1 h; read-out: Mean concentration, time point pooled plasma, 1 h

cpd-smiles	concentration at 1 h [ng/mL]
CNCc1ccc(-c2[nH]c3cc(F)cc4c3c2CCNC4=O)cc1	317
O=C(O)c1ccc(-c2[nH]c3cc(F)cc4c3c2CCNC4=O)cc1	31.1

---

# procedure-summary: Plasma pharmacokinetics of unchanged rucaparib (LC-MS/MS) after a single oral dose of [14C]-rucaparib 600 mg
# Assay type: in vivo, human
# condition-details: human, plasma; unchanged rucaparib by LC-MS/MS; single oral 600 mg; N = 6; mean ± SD; read-out: Vd/F, rucaparib concentration in plasma

cpd-smiles	Vd/F
CNCc1ccc(-c2[nH]c3cc(F)cc4c3c2CCNC4=O)cc1	2300 L
